System: sclera
Assay: Content of proteoglycanes in rabbit sclera after long term treatment (alcian blue method)
Type: in vivo
Settings: wet weight, 3 months treatment
Marks after values point to notes of the source that are not given here.
Content of proteoglycanes, anterior sclera values for the compounds below.

// known answers, use as guide
N[C@@H](CSSC[C@H](N)C(=O)O)C(=O)O : 3.5 +/− 0.5* μg PG/mg tissue
Cn1c(=O)c2[nH]cnc2n(C)c1=O.Cn1c(=O)c2[nH]cnc2n(C)c1=O.NCCN : 2.4 +/− 0.5 μg PG/mg tissue
CNCCC(Oc1ccc(C(F)(F)F)cc1)c1ccccc1 (stereo not shown) : 2.2 +/− 0.4* μg PG/mg tissue

// moving on: another record for Content of proteoglycanes, anterior sclera
I am curious: what Content of proteoglycanes, anterior sclera value has been reported for Cn1c(=O)c2c(ncn2C)n(C)c1=O ?
3.2 +/− 0.8 μg PG/mg tissue

----------
System: sclera
Test: Content of collagen specific amino acids in rabbit sclera after long term treatment (HPLC)
Format: in vivo
Conditions: anterior sclera, dried defatted weight, 10 weeks treatment (Example 4)
Marks after values point to notes of the source that are not given here.
endpoint name: Hydroxyproline content

Cn1cnc2[nH]c(=O)[nH]c(=O)c21 [7-Methylxanthine] : 667 +/− 73 nanomol/mg tissue

Can you look up Hydroxyproline content on sclera for CC(=O)Nc1nnc(S(N)(=O)=O)s1 [Acetazolamide, acetazolamide] ?
596 +/− 27* nanomol/mg tissue

Can you look up Hydroxyproline content on sclera for Cn1cnc2c1c(=O)[nH]c(=O)n2C [Theobromine, 3,7-Dimethylxanthine] ?
751 +/− 53* nanomol/mg tissue

Can you look up Hydroxyproline content on sclera for NCCC[C@H](N)C(=O)O [L-ornithine] ?
605 +/− 37 nanomol/mg tissue
